- Tested on: MEXF 535
- METHOD_DESCRIPTION: clonogenic assay, human tumor xenografts in vitro
- Assay type: cell-based
- PARTICULARS: Melanoma, MEXF 535, Amelanotic melanoma, soft agar, read-out: IC50 (nM), colony formation
QUANTITY_KIND: IC50

Q: Reported IC50 for "CCNC(=O)c1noc(-c2cc(C(C)C)c(O)cc2O)c1-c1ccc(CN2CCOCC2)cc1" : what is it?
Result: 43 nM

---

- Tested on: BXF 1228
- METHOD_DESCRIPTION: clonogenic assay, human tumor xenografts in vitro
- Type: cell-based
- PARTICULARS: Bladder, BXF 1228, Transitional cell carcinoma, soft agar, read-out: IC50 (nM), colony formation
QUANTITY_KIND: IC50
The reply should consist of the numeric value with the unit placed after it.

Q: What does the data say about its IC50? Entry: "CCNC(=O)c1noc(-c2cc(C(C)C)c(O)cc2O)c1-c1ccc(CN2CCOCC2)cc1"
Result: 630 nM

---

- Tested on: BE
- METHOD_DESCRIPTION: cell proliferation, tumor derived cell lines
- Type: cell-based
- PARTICULARS: Colon, 72 or 96 hours exposure
QUANTITY_KIND: IC50 (nM)
API: value field is a number in nM; no unit string.

Q: Any idea what IC50 was measured for "CCNC(=O)c1noc(-c2cc(C(C)C)c(O)cc2O)c1-c1ccc(CN2CCOCC2)cc1" ?
Result: 2.8

---

- System: LXFE 1422
- METHOD_DESCRIPTION: clonogenic assay, human tumor xenografts in vitro
- Type: cell-based
- PARTICULARS: Lung, non-small cell, LXFE 1422, Squamous cell carcinoma, soft agar, read-out: IC50 (nM), colony formation
QUANTITY_KIND: IC50 (nM)
# output: bare number, implied unit nM

Q: Query (molecule): CCNC(=O)c1noc(-c2cc(C(C)C)c(O)cc2O)c1-c1ccc(CN2CCOCC2)cc1 [AUY922] ; field requested: IC50
Result: 48

---

- Tested on: MALME-3M
- METHOD_DESCRIPTION: cell proliferation, tumor derived cell lines
- Assay type: cell-based
- PARTICULARS: Homo sapiens, Melanoma, 72 or 96 hours exposure
- Description: Thirty-seven cancer derived cell lines are used (BT474, MDA-MB-361, MDA-MB-453, SKBr3, T47D, MCF7, MDA-MB-231, MDA-MB-468, SK-MEL-5, A375, MALME-3M, SK-MEL-28, WM266.4, RPMI8226, U266, BE, Colo205, HCT116, HT29, MAWI, RKO, U87MG, HN5, RPMI-8226, A549, MV522, NCI-H1299, NCI-H460, 41M, A2780, CHI, NCI-N87, SKOV3, PC3, MO7e, GIST882 and Baf3) to test the effect of 5-(2,4-Dihydroxy-5-isopropyl-phenyl)-4-(4-morpholin-4-ylmethyl-phenyl)-isoxazole-3-carboxylic acid ethylamide. […]
QUANTITY_KIND: IC50 (nM)
Express it in nM; write the number only.

Q: Item CCNC(=O)c1noc(-c2cc(C(C)C)c(O)cc2O)c1-c1ccc(CN2CCOCC2)cc1 [AUY922] has what recorded IC50?
Result: 7.7

---

- Test system: WM266.4
- METHOD_DESCRIPTION: cell proliferation, tumor derived cell lines
- Type: cell-based
- PARTICULARS: Homo sapiens, WM 266-4, Melanoma, 72 or 96 hours exposure
QUANTITY_KIND: IC50 (nM)
Form entry: value (nM) — number only.

Q: Fill in: IC50 of "CCNC(=O)c1noc(-c2cc(C(C)C)c(O)cc2O)c1-c1ccc(CN2CCOCC2)cc1" is ___
Result: 6.2
